Experiment: Tmax in Sprague-Dawley rat at 10 mg/kg,po measured upto 24 hrs by LC-MS/MS analysis
Type: ADME, organism-based
Settings: in vivo
assay readout: Tmax (h)
Just the number please, in h, no unit attached.

Input: // lookup Tmax for COc1cc(Cc2nnc3n2N=C(c2ccc(C)cc2)CS3)cc(OC)c1OC
Output: 4.3

---

Test: Oral bioavailability in Sprague-Dawley rat at 10 mg/kg measured upto 24 hrs by LC-MS/MS analysis
Assay type: ADME, organism-based
Settings: in vivo
assay readout: bioavailability (%)
Just the number please, in %, no unit attached.

Input: // lookup bioavailability for COc1cc(Cc2nnc3n2N=C(c2ccc(C)cc2)CS3)cc(OC)c1OC
Output: 11.6
